- TARGET_SYSTEM: T1, His-S-MPP1 fusion protein (full-length MPP1) (UniProt Q00013 1-466)
- T1 construct: MPP1 (p55), full length, expressed from the pTriX vector; the fragments of the same protein are numbered up to amino acid 466; also called purified MPP1; source: E. coli, purified (nickel column); not shown: His tag, N-terminal, kept
- T1 sequence (looked up): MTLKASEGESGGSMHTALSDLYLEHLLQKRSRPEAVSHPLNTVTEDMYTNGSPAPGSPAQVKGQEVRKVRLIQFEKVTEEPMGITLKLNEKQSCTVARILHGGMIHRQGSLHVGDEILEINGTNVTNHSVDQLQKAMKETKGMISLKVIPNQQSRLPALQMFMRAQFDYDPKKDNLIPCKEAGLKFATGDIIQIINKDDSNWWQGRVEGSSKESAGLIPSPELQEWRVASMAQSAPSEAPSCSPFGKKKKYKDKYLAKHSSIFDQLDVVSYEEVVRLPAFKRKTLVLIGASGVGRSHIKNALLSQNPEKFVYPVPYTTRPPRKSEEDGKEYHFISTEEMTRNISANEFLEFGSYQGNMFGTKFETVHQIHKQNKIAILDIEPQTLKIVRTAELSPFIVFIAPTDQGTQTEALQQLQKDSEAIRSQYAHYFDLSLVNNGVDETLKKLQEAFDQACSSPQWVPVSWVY
- TEST_METHOD_NOTES: fluorescence polarisation; 100 nM FAM-ABCC4 incubated with various concentrations of full-length MPP1; estimated constant
- COND: both partners purified
pKd: −log10 of the molar value. FAM = fluorescein

- BINDER: "{FAM}-TIFETAL-OH (ABCC4, human, C-terminal 7 amino acids with the PDZ motif ETAL; also called FAM-ABCC4; fluorescein-labeled ABCC4-PDZ motif peptide; source: synthetic peptide) [Fluorescein-conjugated C-terminal peptide of ABCC4 (FAM-TIFETAL-COOH)]"
  pKd: "~6.22"
